# System: foxtail, giant (giant foxtail, Setaria faberii)
# Experiment Description: Test A pre-/postemergence: foxtail, giant
# Assay type: in vivo
# Condition Description: Preemergence, 125 g ai/ha; 0 to 100 scale (0 no effect, 100 complete control)
Value Type: Plant response rating, Foxtail, Giant
Keep the answer to the number alone.

{"Molecule": "Cc1nn(-c2ccc(C(F)(F)F)cc2)nc1Cn1cc(C(F)(F)F)cn1 [Compound 32]", "Plant response rating, Foxtail, Giant": 10}
{"Molecule": "Cc1nn(-c2ccc(F)cc2)nc1Cn1c(Cl)nc(C(F)(F)F)c1Cl [Compound 20]", "Plant response rating, Foxtail, Giant": 0}
{"Molecule": "Cc1nn(-c2cccc(C(F)(F)F)c2)nc1Oc1cc(C(F)(F)F)nn1C [Compound 64]", "Plant response rating, Foxtail, Giant": 0}
{"Molecule": "COc1cc(Cc2nn(-c3ccc(C(F)(F)F)cc3)nc2C)ccn1 [Compound 31]", "Plant response rating, Foxtail, Giant": 30}
{"Molecule": "Cc1nn(-c2ccc(C(F)(F)F)cc2)nc1Oc1ccnc(OCC(F)(F)F)c1 [Compound 77]", "Plant response rating, Foxtail, Giant": 0}

What measured Plant response rating, Foxtail, Giant is associated with Cc1nn(-c2ccccn2)nc1C(=O)c1cccc(C(F)(F)F)c1 [Compound 60] on foxtail, giant (giant foxtail, Setaria faberii)?
0

What measured Plant response rating, Foxtail, Giant is associated with Cc1nn(-c2ccc(F)c(F)c2)nc1Cc1ccnc(C(F)(F)F)c1 [Compound 55] on foxtail, giant (giant foxtail, Setaria faberii)?
100

What measured Plant response rating, Foxtail, Giant is associated with Cc1cnccc1Oc1nn(-c2ccc(F)cc2)nc1C [Compound 87] on foxtail, giant (giant foxtail, Setaria faberii)?
0

Where do the numbers come from? From patent US9302999B2.
